Hey, just so you know, these numbers are from PubChem BioAssay (NCI).

test system: HT29 colon; assay: NCI-60 one-dose screen, 48 h (100 = growth as untreated, 0 = no growth, -100 = all killed); conditions: 10 µM unless noted
The panel holds about 83,000 compounds, 20% with a hit somewhere; the sample as a whole holds those more often.
Could you please mark yes (1) for values of growth below 10% and no (0) for values at or above it?

> print(dat)
                           substance.smiles  assay.system  label.value
1  CCCCn1c(C)nc2cc(Nc3nc(N4CCCCC4)nc4nc[nH]c34)ccc21    HT29 colon       no (0)
2  COC(=O)[C@]12CC[C@@H](C)[C@H](C)[C@@H]1C1=CC[C@@H]3[C@@]4(C)C(c5cnco5)=C[C@@](C)(CO)C4=CC[C@@]3(C)[C@]1(C)CC2    HT29 colon       no (0)

Request: Does the reported growth of the following compound sit strictly below 10%? Cn1cc(-c2ncnc3ccc(-c4cnc(Cl)c(NS(C)(=O)=O)c4)cc23)c2ccccc21
Response: no (0)

Request: Is growth of CN(C)C/C=C/C(=O)Nc1cc2c(Nc3ccc(F)c(Cl)c3)ncnc2cc1O[C@H]1CCOC1 strictly below 10%?
Response: yes (1)

Request: Confirm or reject: growth of Cc1ccc(-c2nc3ccc(Cl)cn3c2NC2CCCCC2)o1 lies strictly below 10%
Response: no (0)

Request: Find out if reported growth for CCCCCCCC(=O)SCC/C=C/[C@@H]1CC(=O)NCc2cccc(n2)C2=N[C@@](C)(CS2)C(=O)N[C@@H](C(C)C)C(=O)N1 is less than 10%
Response: yes (1)

Request: Confirm or reject: growth of Cc1cc(C)n(CC(=O)Nc2ccc(-c3nc4ccccc4s3)cc2)n1 lies strictly below 10%
Response: no (0)

Request: Check if growth falls below 10% for C=C1C(=O)O[C@H]2[C@H]1CC/C(Cn1cc(-c3cc(C)c(C)cc3C)nn1)=C\CC[C@@]1(C)O[C@@H]21 .
Response: yes (1)
